- PROTOCOL_TEXT: Pharmacokinetics study in male cynomolgus monkeys (Test Example 1)
- Assay type: in vivo
- TEST_PARAMETERS: cynomolgus monkey, plasma, po, 300 mg/animal, after Formulation 2 (2 tablets, 300 mg/animal) PO, fasting, mean ± SD, n = 8, read-out: Tmax of SNAC in plasma

{"MOLECULE": "O=C([O-])CCCCCCCNC(=O)c1ccccc1O.[Na+] [SNAC, sodium 8-(salicylamido)caprylate]", "Tmax (min)": 43.2}

====

- PROTOCOL_TEXT: In vivo pharmacokinetics study in healthy subjects, 75-450 mg single dose, fasting (Test Example 2)
- Parameters: species or system human (healthy male subjects)
- TEST_PARAMETERS: human, plasma, after Formulation 5, dose group C 300 mg (equal SNAC content), single oral, healthy male subjects, N = 15, Mean ± SD, read-out: AUC0-t of SNAC

{"MOLECULE": "O=C([O-])CCCCCCCNC(=O)c1ccccc1O.[Na+] [SNAC, sodium 8-(salicylamido)caprylate]", "AUC(0-t)": "1.4 µg·h/mL"}
